Data provenance is patent US20220402862A1.

- Tested on: TTR rat gene
- assay.notes: In vivo editing in rat liver, sgRNA targeting TTR (G534), % indel by NGS
- Parameters: species or system Sprague Dawley female rats
- recorded.conditions: G534 sgRNA + Cas9 mRNA LNP, i.v. 0.3 mg/kg, Experiment 109
Form field: Editing Mean % Indel (one value per entry).
value.kind: Editing Mean % Indel (%)

compound	measurement.target	readout.units	result.value
CCCCC/C=C\C/C=C\CCCCCCCC(=O)OCC(COC(=O)CCC(OCCCCCCCC)OCCCCCCCC)COC(=O)NCCN(CC)CC (stereo not shown)	TTR rat gene	%	62.5
CCCCCCCCCC(C)OC(=O)CCCCCCCC(=O)OCC(COC(=O)CCC(OCCCCCCCC)OCCCCCCCC)COC(=O)OCCCN(CC)CC (stereo not shown)	TTR rat gene	%	60.0
CCCCCCCCCCOC(=O)CCCCCCCC(=O)OCC(COC(=O)CCC(OCCCCCCCC)OCCCCCCCC)COC(=O)OCCCN(CC)CC (stereo not shown)	TTR rat gene	%	46.2
CCCCC/C=C\C/C=C\CCCCCCCC(=O)OCC(COC(=O)CCC(OCCCCCCCC)OCCCCCCCC)COC(=O)OCCCN(CC)CC (stereo not shown) [Compound 1, reference compound]	TTR rat gene	%	61.3

* * *

- assay.notes: Dynamic light scattering of LNPs: Z-average diameter, number average diameter, PDI
- Format: physicochemical
- recorded.conditions: LNP, sg:mRNA 1:1, N/P about 6, 50/9/38/3; Table 2, Experiments 2-20
- From the text: Dynamic Light Scattering (“DLS”) is used to characterize the polydispersity index (“PDI”) and size of the LNPs of the present disclosure. DLS measures the scattering of light that results from subjecting a sample to a light source. PDI, as determined from DLS measurements, represents the distribution of particle size (around the mean particle size) in a population, with a perfectly uniform population having a PDI of zero. […]
Form field: PDI (one value per entry).
value.kind: PDI

                                   molecule  value_kind  result_value
0  CCCCCCCCCCOC(=O)CCCCCCCC(=O)OCC(COC(=O)CCC(OCCCCCCCC)OCCCCCCCC)COC(=O)OCC1CCCN(C)C1 (stereo not drawn)         PDI         0.035
1  CCCCCCCCCCCCOC(=O)CCCCCCCC(=O)OCC(COC(=O)CCC(OCCCCCCCC)OCCCCCCCC)COC(=O)OCCCN(CC)CC (stereo not drawn)         PDI         0.022
2  CCCCCCCCCC(C)OC(=O)CCCCCCCC(=O)OCC(COC(=O)CCC(OCCCCCCCC)OCCCCCCCC)COC(=O)OCCCN(CC)CC (stereo not drawn)         PDI         0.018
3  CCCCC/C=C\C/C=C\CCCCCCCC(=O)OCC(COC(=O)CCC(OCCCCCCCC)OCCCCCCCC)COC(=O)NCCCN(CC)CC (stereo not drawn)         PDI         0.126
4  CCCCC/C=C\C/C=C\CCCCCCCC(=O)OCC(COC(=O)CCCCC(OCCCCCCCC)OCCCCCCCC)COC(=O)OCCCN(CC)CC (stereo not drawn)         PDI         0.044
5  CCCCCC/C=C\COC(=O)CCCCCCCCCC(=O)OCC(COC(=O)CCC(OCCCCCCCC)OCCCCCCCC)COC(=O)OCCCN(CC)CC (stereo not drawn)         PDI         0.026

* * *

- assay.notes: Dynamic light scattering of LNPs: Z-average diameter, number average diameter, PDI
- Type: physicochemical
- recorded.conditions: LNP, sg:mRNA 1:2, N/P about 6, 50/9/38/3; Table 6, Experiments 106-107
- Source text: Dynamic Light Scattering (“DLS”) is used to characterize the polydispersity index (“PDI”) and size of the LNPs of the present disclosure. DLS measures the scattering of light that results from subjecting a sample to a light source. PDI, as determined from DLS measurements, represents the distribution of particle size (around the mean particle size) in a population, with a perfectly uniform population having a PDI of zero. […]
value.kind: PDI

In [3]: df
Out[3]:
                                   compound  result_value
0  CCCCC/C=C\C/C=C\CCCCCCCC(=O)OCC(COC(=O)CCC(OCCCCCCCC)OCCCCCCCC)COC(=O)OCCCN1CCCCC1 (stereo not shown)          0.02
1  CCCCCCCCCCCCCCCCCC(=O)OCC(COC(=O)CCC(OCCCCCCCC)OCCCCCCCC)COC(=O)OCCCN(CC)CC (stereo not shown)          0.02
2  CCCCC/C=C\C/C=C\CCCCCCCC(=O)OCC(COC(=O)CCC(OCCCCCCCC)OCCCCCCCC)COC(=O)NCCN1CCCC1 (stereo not shown)          0.04
3  CCCCCCCC/C=C\CCCCCCCC(=O)OCC(COC(=O)CCC(OCCCCCCCC)OCCCCCCCC)COC(=O)OCCCN(CC)CC (stereo not shown)          0.01
4  CCCCC/C=C\C/C=C\CCCCCCCC(=O)OCC(COC(=O)CCC(OCCCCCCCC)OCCCCCCCC)COC(=O)NCCN1CCCCCC1 (stereo not shown)          0.05
5  CCCCC/C=C\C/C=C\CCCCCCCC(=O)OCC(COC(=O)CCC(OCCCCCCCC)OCCCCCCCC)COC(=O)NCCN1CCCCC1 (stereo not shown)          0.04
6  CC/C=C\C/C=C\C/C=C\CCCCCCCC(=O)OCC(COC(=O)CCC(OCCCCCCCC)OCCCCCCCC)COC(=O)OCCCN(CC)CC (stereo not shown)             0

* * *

- assay.notes: Dynamic light scattering of LNPs: Z-average diameter, number average diameter, PDI
- Assay type: physicochemical
- recorded.conditions: LNP, sg:mRNA 1:2, N/P 6.0, 50/9/38/3; Table 4, Experiment 105
value.kind: Z-avg (nm)

molecule	result.value
CCCCC/C=C\C/C=C\CCCCCCCC(=O)OCC(COC(=O)CCC(OCCCCCCCC)OCCCCCCCC)COC(=O)OCCC1CCCN1C (centres unmarked)	88.39 nm
CCCCCCCCOC(CCC(=O)OCC(COC(=O)CCCCCCCCCCC(=O)OCCCCCCC)COC(=O)OCCCN(CC)CC)OCCCCCCCC (centres unmarked)	99.25 nm
CCCCCCCCCCOC(=O)CCCCCCCC(=O)OCC(COC(=O)CCC(OCCCCCCCC)OCCCCCCCC)COC(=O)OCCCN(CC)CC (centres unmarked)	96.76 nm
CCCCCCCCCC(C)OC(=O)CCCCCCCC(=O)OCC(COC(=O)CCC(OCCCCCCCC)OCCCCCCCC)COC(=O)OCCCN(CC)CC (centres unmarked)	98.90 nm
CCCCC/C=C\C/C=C\CCCCCCCC(=O)OCC(COC(=O)CCC(OCCCCCCCC)OCCCCCCCC)COC(=O)OCCCN(CC)CC (centres unmarked) [Compound 1, reference compound]	88.60 nm

* * *

- System: Transthyretin (TTR)
- assay.notes: Serum TTR ELISA in mice after LNP dosing
- Assay type: in vivo, CD-1 female mice
- recorded.conditions: mouse, LNP i.v. 0.1 mg/kg, guide G502, Experiment 105; relative to TSS control
Form field: Serum TTR % TSS (one value per entry).

compound	measurement.target	Serum TTR % TSS / %
CCCCCCCCCCOC(=O)CCCCCCCC(=O)OCC(COC(=O)CCC(OCCCCCCCC)OCCCCCCCC)COC(=O)OCCCN(CC)CC (centres unmarked)	Transthyretin (TTR)	42
CCCCC/C=C\C/C=C\CCCCCCCC(=O)OCC(COC(=O)CCC(OCCCCCCCC)OCCCCCCCC)COC(=O)OCCC1CCCN1C (centres unmarked)	Transthyretin (TTR)	38
CCCCCCCCOC(CCC(=O)OCC(COC(=O)CCCCCCCCCCC(=O)OCCCCCCC)COC(=O)OCCCN(CC)CC)OCCCCCCCC (centres unmarked)	Transthyretin (TTR)	43
CCCCCCCCCC(C)OC(=O)CCCCCCCC(=O)OCC(COC(=O)CCC(OCCCCCCCC)OCCCCCCCC)COC(=O)OCCCN(CC)CC (centres unmarked)	Transthyretin (TTR)	32
CCCCC/C=C\C/C=C\CCCCCCCC(=O)OCC(COC(=O)CCC(OCCCCCCCC)OCCCCCCCC)COC(=O)OCCCN(CC)CC (centres unmarked) [Compound 1, reference compound]	Transthyretin (TTR)	27

* * *

Form field: Encapsulation (%) (one value per entry).
- assay.notes: RNA encapsulation efficiency of LNPs (Ribogreen fluorescence assay)
- Type: physicochemical
- recorded.conditions: LNP, sg:mRNA 1:1, N/P about 6, amine lipid/DSPC/cholesterol/PEG-2k-DMG 50/9/38/3; Table 2, Experiments 2-20
value.kind: Encapsulation (%)

In [3]: df
Out[3]:
                                   molecule         value_kind  result_value
0  CCCCCCCCOC(CCC(=O)OCC(COC(=O)CCCCCCCC(=O)OCCCCCC)COC(=O)OCCCN(CC)CC)OCCCCCCCC (stereo not shown)  Encapsulation (%)            89
1  CCCCCCCCCCOC(=O)CCCCCCCC(=O)OCC(COC(=O)CCCCCC(=O)OC(CCCCCCCC)CCCCCCCC)COC(=O)OCCC1CCCN1C (stereo not shown)  Encapsulation (%)            98
2  CCCCC/C=C\C/C=C\CCCCCCCC(=O)OCC(COCCN(CC)CC)COC(=O)CCC(OCCCCCCCC)OCCCCCCCC (stereo not shown)  Encapsulation (%)            99
3  CCCCCC/C=C\COC(=O)CCCC(=O)OCC(COC(=O)CCC(OCCCCCCCC)OCCCCCCCC)COC(=O)OCCCN(CC)CC (stereo not shown)  Encapsulation (%)            96
